Molecular target: CK1alpha (Homo sapiens, UniProt P48729+Q96SW2)
Construct: endogenous in cells; host or cells: MM1 S (ATCC CRL-2974)
Sequence (P48729 whole entry): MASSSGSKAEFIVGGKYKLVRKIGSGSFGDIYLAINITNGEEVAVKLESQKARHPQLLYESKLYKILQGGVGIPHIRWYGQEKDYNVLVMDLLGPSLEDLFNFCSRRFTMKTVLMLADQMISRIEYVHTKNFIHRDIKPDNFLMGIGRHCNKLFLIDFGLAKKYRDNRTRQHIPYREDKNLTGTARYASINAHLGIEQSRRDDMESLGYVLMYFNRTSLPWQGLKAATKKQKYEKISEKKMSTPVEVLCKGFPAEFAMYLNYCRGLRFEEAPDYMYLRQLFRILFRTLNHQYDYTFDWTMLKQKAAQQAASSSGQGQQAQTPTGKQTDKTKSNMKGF
Sequence (Q96SW2 whole entry): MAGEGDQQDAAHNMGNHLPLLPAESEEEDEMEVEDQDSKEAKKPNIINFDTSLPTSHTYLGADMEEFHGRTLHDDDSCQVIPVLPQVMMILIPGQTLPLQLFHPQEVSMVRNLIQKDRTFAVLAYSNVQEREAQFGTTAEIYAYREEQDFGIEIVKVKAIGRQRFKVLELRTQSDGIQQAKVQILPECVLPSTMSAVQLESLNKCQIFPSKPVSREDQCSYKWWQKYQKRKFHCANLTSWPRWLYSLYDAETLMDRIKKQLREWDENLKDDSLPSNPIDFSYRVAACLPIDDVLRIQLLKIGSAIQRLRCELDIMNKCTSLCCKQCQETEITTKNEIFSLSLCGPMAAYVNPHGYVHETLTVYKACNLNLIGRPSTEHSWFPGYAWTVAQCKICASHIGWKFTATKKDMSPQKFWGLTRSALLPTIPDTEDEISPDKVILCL
Sequence (Q16531 whole entry partner): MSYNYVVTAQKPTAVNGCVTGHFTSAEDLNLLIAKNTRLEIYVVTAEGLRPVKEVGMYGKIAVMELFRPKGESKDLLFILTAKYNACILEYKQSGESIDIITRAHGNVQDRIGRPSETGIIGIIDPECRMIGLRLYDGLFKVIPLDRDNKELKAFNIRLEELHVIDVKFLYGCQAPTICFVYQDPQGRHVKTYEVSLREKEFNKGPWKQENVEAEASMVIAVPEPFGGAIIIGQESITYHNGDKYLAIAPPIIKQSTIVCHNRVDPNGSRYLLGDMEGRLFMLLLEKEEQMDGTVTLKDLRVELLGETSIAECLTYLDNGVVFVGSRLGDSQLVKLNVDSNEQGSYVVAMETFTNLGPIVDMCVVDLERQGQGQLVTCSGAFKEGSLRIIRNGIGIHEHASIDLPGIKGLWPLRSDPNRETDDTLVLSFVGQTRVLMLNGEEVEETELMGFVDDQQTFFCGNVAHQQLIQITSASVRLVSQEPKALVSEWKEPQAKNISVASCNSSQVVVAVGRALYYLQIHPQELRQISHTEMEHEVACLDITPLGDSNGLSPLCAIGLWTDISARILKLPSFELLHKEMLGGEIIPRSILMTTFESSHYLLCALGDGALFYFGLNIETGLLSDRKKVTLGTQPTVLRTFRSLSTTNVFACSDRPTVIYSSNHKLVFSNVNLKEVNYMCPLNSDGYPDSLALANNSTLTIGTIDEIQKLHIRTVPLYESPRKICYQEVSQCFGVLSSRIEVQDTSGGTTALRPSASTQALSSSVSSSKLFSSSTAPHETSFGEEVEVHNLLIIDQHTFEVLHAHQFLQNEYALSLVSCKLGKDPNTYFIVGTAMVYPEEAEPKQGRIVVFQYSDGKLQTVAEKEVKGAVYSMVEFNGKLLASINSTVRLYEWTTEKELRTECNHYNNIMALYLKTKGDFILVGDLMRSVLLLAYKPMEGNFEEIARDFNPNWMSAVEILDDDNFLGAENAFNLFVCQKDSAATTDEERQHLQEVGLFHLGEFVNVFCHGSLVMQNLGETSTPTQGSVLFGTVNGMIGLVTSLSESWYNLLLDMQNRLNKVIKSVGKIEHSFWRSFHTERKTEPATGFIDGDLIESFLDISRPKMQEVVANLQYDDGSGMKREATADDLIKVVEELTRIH
Test: Selectivity western blot assay in MM1 S cells, CK1alpha
Type: cell-based
Design: key: A represents no degradation observed at 30 μM; B represents trace degradation at 30 μM (below 20%); C represents weak degradation at 30 μM (below 50%); D represents degradation at 30 μM (>90%); E represents degradation at 3 μM (>90%); F represents degradation at 0.3 μM (>90%)
Conditions: MM1 S cells, 0.3, 3 and 30 μM, 6 hours
readout kind: CK1alpha degradation

{"columns": ["compound", "result"],
 "data": [
  ["Cc1c(Cl)cc(NC(=O)NCc2ccc3c(c2)C(=O)N(C2CCC(=O)NC2=O)C3)cc1CN1C2CCC1COC2 (stereo not shown) [Compound 138]", "A"],
  ["Cc1c(Cl)cc(NC(=O)NCc2ccc3c(c2)C(=O)N(C2CCC(=O)NC2=O)C3)cc1CN1CCOCC1 (stereo not shown) [Compound 82]", "A"]
]}

----------
Biological target: Full length wild-type cereblon CRBN (Homo sapiens)
Construct: Full length wild-type cereblon CRBN (80.0 nM, 10 μL) was incubated in assay buffer
Sequence (Q96SW2 whole entry): as the sequence (Q96SW2 whole entry) above
Assay: Fluorescence polarization (FP) assay indicating cereblon binding
Conditions: Table 3B; read-out: rFP IC50
readout kind: IC50

{"columns": ["molecule", "result"],
 "data": [
  ["COc1cc(COC(=O)Nc2ccc(C3(C)CC3)cc2)cc2c1CN(C1CCC(=O)NC1=O)C2=O (stereo not drawn) [Compound 540]", "≤ 600 nM"],
  ["CC(C)(C)c1ccc(NC(=O)OCc2cc(F)c3c(c2)C(=O)N(C2CCC(=O)NC2=O)C3)cn1 (stereo not drawn) [Compound 509]", "1200 to 1900 nM"],
  ["O=C1CCC(N2Cc3c(F)cc(COC(=O)Nc4cc(-c5ccccc5)ccn4)cc3C2=O)C(=O)N1 (stereo not drawn) [Compound 524]", "> 1900 nM"],
  ["Cc1ccc(NC(=O)OCc2cc(C#N)c3c(c2)C(=O)N(C2CCC(=O)NC2=O)C3)cc1Cl (stereo not drawn) [Compound 502]", "> 1900 nM"],
  ["C[C@@H]1CCCN1c1ccc(NC(=O)OCc2cc(F)c3c(c2)C(=O)N(C2CCC(=O)NC2=O)C3)cn1 (stereo partly drawn) [Compound 523]", "600 to 1200 nM"],
  ["COc1cc(COC(=O)Nc2cc(-c3ccccc3)ccn2)cc2c1CN(C1CCC(=O)NC1=O)C2=O (stereo not drawn) [Compound 556]", "≤ 600 nM"],
  ["COc1cc(COC(=O)Nc2ccc(-c3ccccc3C)nc2)cc2c1CN(C1CCC(=O)NC1=O)C2=O (stereo not drawn) [Compound 560]", "≤ 600 nM"],
  ["COc1cc(COC(=O)Nc2ccc(C3CCC3)cc2)cc2c1CN(C1CCC(=O)NC1=O)C2=O (stereo not drawn) [Compound 557]", "≤ 600 nM"],
  ["O=C1CCC(N2Cc3c(F)cc(COC(=O)Nc4ccc(F)c(Cl)c4)cc3C2=O)C(=O)N1 (stereo not drawn) [Compound 532]", "> 1900 nM"],
  ["Cc1ccc(NC(=O)OCc2cc(Cl)c3c(c2)C(=O)N(C2CCC(=O)NC2=O)C3)cc1Cl (stereo not drawn) [Compound 504]", "> 1900 nM"],
  ["COc1c(COC(=O)Nc2ccc(C)c(Cl)c2)ccc2c1C(=O)N(C1CCC(=O)NC1=O)C2 (stereo not drawn) [Compound 570]", "> 1900 nM"],
  ["Cc1cc(NC(=O)OCc2cc(F)c3c(c2)C(=O)N(C2CCC(=O)NC2=O)C3)cnc1-c1ccccc1 (stereo not drawn) [Compound 520]", "600 to 1200 nM"]
]}

Entry source: patent US20240261274A1
